Provide the reported cleaved RNA product abundance of each item.
Tested on: Bacillus subtilis
Measurement notes: cleaved RNA product abundance (RNA/gDNA barcode ratio) relative to median wild-type variant (ratio to wild type); higher = more accumulation of the downstream cleavage product
Cond: experiment (reporter, strain, medium): exp 4a: truncated aprE reporter, strain BJT201 with 2% xylose (RNase J1 expressed); cleavage site: cggR-gapA (positions -7 to +36 mutated)
Lab note: jot the number down without any unit.

(Q) What measured cleaved RNA product abundance goes with `ACAGACGAAGGAGCCGCAAAGAAGTTATTAAGGGATGAATAATACCTCAATATTAATATCTCTCACTTATTTAAA` ?
(A) 0.0425

(Q) # iterate: `ACAGACGAAGGAGCCGCAAAGAAGTTACTATGGGATGAATAATCCCTCAATATAAATATCTCTCACTTATTTAAA`
(A) 0.228

(Q) # iterate: `ACAGACGAAGGAGCCGCAAAGAAATTATTAAGGGATGAATAATCCGTCAATATAAATATCTCTCACTTATTTAAA`
(A) 0.261

(Q) # iterate: `ACAGACGAAGGAGCCGCAAAGAAGTTTCTAAGGGATGAATAATCCCTCAATATAAATATCTCTCACTTATTTAAA`
(A) 0.344

(Q) # iterate: `ACAGACGAAGGAGCCGCAAAGAAGTTATTACGGGTTGAATAATCCCTCAATATAAATATCTCTCACTTATTTAAA`
(A) 0.16

(Q) # iterate: `ACAGACGAAGGAGCCGCAAAGAAGTTATTACGGGATGAATAATCCCTAAATATAAATATCTCTCACTTATTTAAA`
(A) 0.394

(Q) # iterate: `ACAGACGAAGGAGCCGCAAAGAAGTTATTAAGGGATGATAATCCCTCAATATAAATATCTCTCACTTATTTAAAG`
(A) 0.861

Recorded values, source the supplement of paper PMC11780869.
